# Tested on: SK-OV3
# protocol.summary: Chemoresponse assay, lapatinib, SK-OV3
# Assay type: cell-based
# applied.conditions: Homo sapiens, SK-OV-3, 72 hours
recorded.endpoint: EC50

Lab book: EC50 of "CS(=O)(=O)CCNCc1ccc(-c2ccc3ncnc(Nc4ccc(OCc5cccc(F)c5)c(Cl)c4)c3c2)o1" noted as ~10 µM

Taken from patent US20100311084A1.
